// provenance: ChEMBL document CHEMBL1201862

- Test system: HOP-18
- assay_method_text: NCI tumour cell line growth inhibition, 48 h
The source made the active and inactive calls. No stated cut-off is given here; in the data, active = GI50 up to about 1.1 µM and inactive = higher.
Parameter call: string, one of active, inactive

O=C1C=CC(S(=O)(=O)C2=C/C(=C/Nc3ccc(Cl)cc3)C(=O)C=C2)=C/C1=C/Nc1ccc(Cl)cc1 = inactive
CC(=O)c1c2c(cc3c1CC1(C3)Cc3cc4c(c(C(=O)O)c3C1)CCC4)CCC2 (stereo not given) = inactive
C#CCNC(=O)NC(CCCCNC(=O)OCc1ccccc1)C(=O)OCc1ccccc1 (stereo not given) = inactive
Cc1ccc(S(=O)(=O)N2c3ccccc3[C@H]3CCC=C[C@H]32)cc1 = inactive
Cn1ccc(=NS(=O)(=O)c2ccccc2)cc1 = inactive
COC(=O)C1(c2ccc(OC)cc2)NC(c2ccccc2)C2C(=O)N(c3ccc(OC)cc3)C(=O)C21 (stereo not given) = active
COC(=O)C(=C\Sc1ccccc1)/C=C/C(=O)OC(C)(C)C = inactive
COc1ccc(-c2nc(Sc3c([N+](=O)[O-])ncn3C)n[nH]2)cc1 = active

Task: So what was the verdict on Nc1ccn(C2CCC(CO)O2)c(=O)n1 (stereo not given) in this test?
Output: inactive

Task: Tell me the recorded outcome of this test for O=S1(=O)C[C@@H](O)[C@H](O)CS1 .
Output: inactive

----------
- Tested on: CCRF-CEM
- assay_method_text: NCI tumour cell line growth inhibition, 48 h
Calls of active or inactive are those of the source. Rule as the data show it: active = GI50 up to about 1.1 µM and inactive = higher.
recorded_endpoint: GI50

O=C(/C=C/c1ccsc1)c1ccc(Cl)s1 = 28.4 µM (inactive)

Dear colleague, could you send me GI50 for each of the items below? Thanks.
1. FC(F)(F)C12C34C=CC5(CCC6(C=CC1(CC3)O6)C52C(F)(F)F)O4 (configuration not stated)
2. COc1ccc(-n2cnc3c(NC(CCSC)C(=O)O)ncnc32)cc1 (configuration not stated)

Output:
1: > 100 µM (inactive); 2: > 100 µM (inactive)

----------
Please provide measured GI50 for the entries that follow.
- Tested on: IGROV-1
- assay_method_text: NCI tumour cell line growth inhibition, 48 h
Activity calls are given as the source filed them. Rule as the data show it: active = GI50 up to about 1.1 µM and inactive = higher.

The following compounds have reported results that may help.
Cc1cccc(C)c1/N=N/c1ccc(O)c(CN(C)C)c1 = 26.3 µM (inactive)
C=C1C(=O)OC2CC1C(O)C/C(C)=C/CC/C(C)=C/C(O)CC2C (stereo not given) = 2.75 µM (inactive)

Would you be so kind as to report GI50 for each listed record?
1. O=C1CCC(c2ccc(Cl)cc2)=NN1c1nsc2ccccc12
2. CC(C)(C)c1cc2c3c(c1)C(C(F)(F)F)(C(F)(F)F)O[Te]3(C)OC2(C(F)(F)F)C(F)(F)F
3. NC1CCCCC1.O=C(CP(=O)(O)O)NC(CC(=O)OCc1ccccc1)C(=O)OCc1ccccc1 (stereo not given)
4. Cc1ccc(NCCCN2CCN(CCCNc3ccc(C)c4sc5ccccc5c(=O)c34)CC2)c2c(=O)c3ccccc3sc12

Output:
1: 39.4 µM (inactive); 2: > 100 µM (inactive); 3: > 100 µM (inactive); 4: > 100 µM (inactive)

Give me GI50 for each of these compounds, listed below.
1. CCCC1C(C#N)(C#N)C(C#N)=C(N)C1(C)C(C)=O (stereo not given)
2. N[C@H]1c2c(Br)sc(Br)c2C(=O)[C@H]1O
3. Cc1cccc(NC2=NCCO2)c1Cl
4. Cn1c(=O)c2c(nc3n(Cc4ccccc4)c(=O)c(NCCBr)cn23)n(C)c1=O
5. C[C@]12CC[C@H](O)C[C@@H]1CC[C@@H]1[C@@H]2CC[C@]2(C)[C@@H](c3cc(C(F)(F)F)[nH]n3)CC[C@@H]12
6. CS(=O)(=O)OCCN1CCC2(CC1)SSC1(CCN(CCOS(C)(=O)=O)CC1)S2
7. CC(=O)Oc1cc(Cl)c(OC(C)=O)c2c(OC(C)=O)c(C)c(O[Si](C)(C)C(C)(C)C)cc12

Output:
1: > 100 µM (inactive); 2: 14 µM (inactive); 3: > 100 µM (inactive); 4: 33 µM (inactive); 5: 6.32 µM (inactive); 6: 50.8 µM (inactive); 7: 3.64 µM (inactive)
